method_notes: self-splicing fitness, log relative to wild type (ln ratio); higher = more splicing; Tetrahymena group I intron in knt gene, E. coli kanamycin selection, DiMSum; sequences stand for … in CUCUCU…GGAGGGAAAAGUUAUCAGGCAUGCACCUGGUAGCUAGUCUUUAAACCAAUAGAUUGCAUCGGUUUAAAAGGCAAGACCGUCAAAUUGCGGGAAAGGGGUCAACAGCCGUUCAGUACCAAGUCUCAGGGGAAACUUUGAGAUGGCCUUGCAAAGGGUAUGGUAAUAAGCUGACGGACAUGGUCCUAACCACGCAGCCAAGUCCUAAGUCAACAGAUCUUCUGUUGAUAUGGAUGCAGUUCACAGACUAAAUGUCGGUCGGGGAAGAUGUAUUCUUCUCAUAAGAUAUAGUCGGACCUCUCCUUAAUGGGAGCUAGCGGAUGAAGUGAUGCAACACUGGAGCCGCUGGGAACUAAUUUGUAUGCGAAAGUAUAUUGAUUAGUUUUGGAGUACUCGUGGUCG;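 further: selection with 25 µg/mL kanamycin versus none on LB agar overnight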
condition_label: 30 °C
endpoint_label: self-splicing fitness (ln)
# respond with the number and nothing more

Request: Recall and state the measured self-splicing fitness (ln) for CUGAAGCAAUAUUACGGUAA .
Result: -3.7

Request: Using known records, supply self-splicing fitness (ln) for GAGGAGCAAUAUUACGUUCA
Result: -1.18

Request: Provide self-splicing fitness (ln) value for the following sequence: CGGCAGCAAUAUUACGAGUG
Result: -1.03

Request: Query self-splicing fitness (ln) for CUCGAGCAAUAUUACGCAGA
Result: -2.04

Request: Output measured self-splicing fitness (ln) for this item: AACAAGCAAUAUUACGCGAC
Result: -2.41

Request: In one line, give reported self-splicing fitness (ln) of the entry AACCAGCAAUAUUACGAUUU .
Result: 0.157

Request: Report measured self-splicing fitness (ln); entry is AUGAAGCAAUAUUACGAUAU
Result: -0.294

Request: Specify reported self-splicing fitness (ln) for the sequence shown: ACCUAGCAAUAUUACGGUCC
Result: -2.82

Request: Give the value of self-splicing fitness (ln) reported for the following: UUACAGCAAUAUUACGGAAC
Result: -2.88

Request: Give the reported self-splicing fitness (ln) for this sequence. GGCGAGCAAUAUUACGACGU
Result: -1.36

Request: Tell me self-splicing fitness (ln) reported for CAAGAGCAAUAUUACGAUUU
Result: -3.11

Request: Give self-splicing fitness (ln) for the following sequence: UCGUAGCAAUAUUACGCCGU
Result: -1.52

Request: Supply self-splicing fitness (ln) value. Item: UACAAGCAAUAUUACGACUU
Result: -1.19

Request: Return self-splicing fitness (ln) (reported value) for this sequence: AGUUAGCAAUAUUACGCCUA
Result: -1.11

Request: Return the recorded self-splicing fitness (ln) value; entry: UAUGAGCAAUAUUACGUGCA
Result: -2.09

Request: Find the measured self-splicing fitness (ln) of GAGUAGCAAUAUUACGACAU and report it.
Result: -0.282

Request: Give the reported self-splicing fitness (ln) for this sequence. UAUUAGCAAUAUUACGCUUG
Result: -0.91

Request: Consider the sequence GACUAGCAAUAUUACGGAGC and give its recorded self-splicing fitness (ln).
Result: -1.58

Request: Tell me its self-splicing fitness (ln) given AUGGAGCAAUAUUACGUUCA as the entry.
Result: -1.16

Request: Specify self-splicing fitness (ln) for UGAUAGCAAUAUUACGCGUC and stop.
Result: -3.08

Request: # return recorded self-splicing fitness (ln) for input AAAUAGCAAUAUUACGUUGG
Result: -4.2

Request: Identify the reported self-splicing fitness (ln) for the following entry. CAACAGCAAUAUUACGCGGG
Result: -2.63

Request: Check the records and state self-splicing fitness (ln) for AAUUAGCAAUAUUACGCGCC
Result: -0.89

Request: Entry GGUGAGCAAUAUUACGGAGG needs its self-splicing fitness (ln) filled in; supply it.
Result: -1.6

Request: Identify measured self-splicing fitness (ln) corresponding to UGUUAGCAAUAUUACGCUCG
Result: -0.015

Request: Tell me its self-splicing fitness (ln) given AGACAGCAAUAUUACGGCAC as the entry.
Result: -0.629

Request: Tell me self-splicing fitness (ln) reported for GCCUAGCAAUAUUACGGUUU
Result: -0.729

Request: Note self-splicing fitness (ln) for the sequence shown: UAGGAGCAAUAUUACGGUAG
Result: -3.52

Request: Entry UACAAGCAAUAUUACGCGUU needs its self-splicing fitness (ln) filled in; supply it.
Result: -2.57

Request: Tell me self-splicing fitness (ln) reported for GUCUAGCAAUAUUACGACUC
Result: -0.625

Request: Identify self-splicing fitness (ln) associated with the sequence GUACAGCAAUAUUACGGUUU
Result: -0.599

Request: Please look at this sequence and report its self-splicing fitness (ln): UUCUAGCAAUAUUACGCAGG
Result: -3.52

Request: Give a short answer stating reported self-splicing fitness (ln) for GGGUAGCAAUAUUACGUUCA .
Result: 0.0201

Request: Report self-splicing fitness (ln) for CUACAGCAAUAUUACGGUCU
Result: -4.27
